condition-set: buffer; pH 7.4; 200.0 µM
The label depends only on solubility kinetic: met if it is at least 30 µg/mL, not met if it is smaller.

[
  {
    "molecule": "CC1CCN(C(=O)CN(Cc2ccc(F)cc2)S(C)(=O)=O)CC1",
    "class-name": "met"
  },
  {
    "molecule": "CC(C)(C)N1CC(C(=O)Nc2cccc(Cl)c2Cl)CC1=O (centres undefined)",
    "class-name": "met"
  },
  {
    "molecule": "CSc1ccc(Cl)c(C(=O)N2CCOc3ccccc32)c1",
    "class-name": "not met"
  },
  {
    "molecule": "Cl.c1ccc(Cc2ccc(OCCn3ccnc3)cc2)cc1",
    "class-name": "met"
  },
  {
    "molecule": "Cc1nc(C)c(C(=O)OCC(=O)NCc2ccccc2Cl)s1",
    "class-name": "not met"
  },
  {
    "molecule": "Cc1nc(SCC(=O)NCCN2C(=O)CSC2=O)nc(C)c1C",
    "class-name": "met"
  },
  {
    "molecule": "Cl.Clc1ccc(Cn2c(CN3CCCC3)nc3ccccc32)cc1",
    "class-name": "met"
  },
  {
    "molecule": "Cl.O=S(=O)(CCc1ccncc1)c1ccc(Cl)cc1",
    "class-name": "met"
  },
  {
    "molecule": "CC(C1CCN(Cc2nc(C3CC3)no2)CC1)N1CCOCC1 (centres undefined)",
    "class-name": "met"
  },
  {
    "molecule": "CC1CCCC(NC(=O)COC(=O)COc2cccc(F)c2)C1C (centres undefined)",
    "class-name": "not met"
  },
  {
    "molecule": "CC(=O)c1ccc(N2CCN(C(=O)Cc3cccs3)CC2)cc1",
    "class-name": "met"
  },
  {
    "molecule": "Fc1ccc(SCCc2cccc[nH+]2)cc1.O=P([O-])(O)O",
    "class-name": "not met"
  },
  {
    "molecule": "FC(F)(F)c1ccccc1CCN1CCNCC1",
    "class-name": "met"
  },
  {
    "molecule": "Cc1ccccc1NC(=O)CCOc1ccccc1",
    "class-name": "met"
  },
  {
    "molecule": "C=CCNc1nc(C)c(CNc2c(C)cc(C)cc2C)nc1C#N",
    "class-name": "not met"
  },
  {
    "molecule": "N=C1SCC(=O)N1c1ccc(Cl)cc1",
    "class-name": "met"
  },
  {
    "molecule": "COc1ccc(NC(=S)NCCCN2CCCC2)cc1Cl",
    "class-name": "met"
  },
  {
    "molecule": "CCOc1ccc(Nc2nc(-c3cccnc3)cs2)cc1",
    "class-name": "not met"
  },
  {
    "molecule": "O=C1CN=C(c2ccc(F)cc2)c2oc3ccccc3c2N1",
    "class-name": "not met"
  },
  {
    "molecule": "CC(=O)N1CCN(CC(C)(C)NS(=O)(=O)c2ccccc2)CC1",
    "class-name": "met"
  },
  {
    "molecule": "Cc1nc2ccc([N+](=O)[O-])cc2c(=O)n1Cc1ccccc1Br",
    "class-name": "not met"
  },
  {
    "molecule": "CCCC(=O)Oc1ccc(C2NC(=O)c3ccccc3O2)cc1OC (centres undefined)",
    "class-name": "not met"
  },
  {
    "molecule": "O=C(Nc1cc2c3c(c1)CC(=O)N3CCC2)c1ccccc1F",
    "class-name": "met"
  },
  {
    "molecule": "CCOc1ccc(-c2cnc3ccccc3n2)cc1",
    "class-name": "not met"
  },
  {
    "molecule": "Cc1cccc(N2C(=O)C(O)=C(C(=O)c3cccs3)C2c2ccccc2)n1 (centres undefined)",
    "class-name": "met"
  },
  {
    "molecule": "O=C(NCCc1csc(-c2ccccc2)n1)c1ccccc1F",
    "class-name": "met"
  },
  {
    "molecule": "Cc1cccc(COC(=O)C(Cc2ccccc2)NC(N)=O)c1 (centres undefined)",
    "class-name": "met"
  },
  {
    "molecule": "N#Cc1c(N)n(-c2ccccc2N)c2nc3ccccc3nc12",
    "class-name": "not met"
  },
  {
    "molecule": "CC(=O)c1ccc(N=C2SCCCN2C(=O)C2CCCCC2)cc1",
    "class-name": "met"
  },
  {
    "molecule": "COc1ccc(C(C)=O)cc1COc1ccccc1[N+](=O)[O-]",
    "class-name": "not met"
  },
  {
    "molecule": "CN(C)c1nc(-c2cccnc2)nc(-c2ccccc2)c1C#N",
    "class-name": "not met"
  },
  {
    "molecule": "CN1C(=O)NC(c2ccc(O)cc2)C2=C1CN(c1ccccc1)C2=O (centres undefined)",
    "class-name": "not met"
  },
  {
    "molecule": "COc1cc(CC(=O)NCC2CCCCC2)cc(OC)c1OC",
    "class-name": "met"
  },
  {
    "molecule": "O=Cc1ccc(Sc2ncccn2)o1",
    "class-name": "not met"
  },
  {
    "molecule": "COc1ccc(C=C(C#N)C#N)c(CSc2ccccn2)c1",
    "class-name": "not met"
  },
  {
    "molecule": "O=C(NC1CCCCC1)c1ccc(-c2ccccc2F)o1",
    "class-name": "not met"
  },
  {
    "molecule": "COc1cccc(NC(=S)Nc2ccc(Br)cc2Cl)c1",
    "class-name": "not met"
  },
  {
    "molecule": "Cc1nc(SCCc2ccccc2)[nH]c(=O)c1C",
    "class-name": "not met"
  },
  {
    "molecule": "CCOC(=O)C1=C(C)Nc2nc3ccccc3n2C1c1ccc(O)cc1 (centres undefined)",
    "class-name": "not met"
  },
  {
    "molecule": "C=CCN(Cc1nc(-c2ccccc2)no1)C(=O)c1ccco1",
    "class-name": "met"
  },
  {
    "molecule": "O=C(CCN1C(=O)C2C3CCC(C3)C2C1=O)OCC(=O)c1ccc(Cl)cc1 (centres undefined)",
    "class-name": "met"
  },
  {
    "molecule": "Cc1cc(NC(=O)CN(C)S(=O)(=O)c2cccc(Cl)c2)no1",
    "class-name": "not met"
  },
  {
    "molecule": "CC(C)C(C)(C#N)NC(=O)CN1C(=O)NC2(CCCc3ccccc32)C1=O (centres undefined)",
    "class-name": "met"
  },
  {
    "molecule": "OCCSc1nc(N2CCOCC2)nc(N2CCOCC2)n1",
    "class-name": "met"
  },
  {
    "molecule": "Cc1ccc(C(=O)NCC(C)NC(=O)c2ccc(C)c([N+](=O)[O-])c2)cc1[N+](=O)[O-] (centres undefined)",
    "class-name": "not met"
  },
  {
    "molecule": "O=C(OCC(=O)N1CCCCCC1)c1cccc(Cl)c1",
    "class-name": "met"
  },
  {
    "molecule": "O=C1CCN(Cc2ccccc2)C(=O)N1c1ccccc1",
    "class-name": "met"
  },
  {
    "molecule": "COc1ccc(CNC(=O)COC(=O)c2sccc2C)cc1OC",
    "class-name": "not met"
  }
]
